SYSTEM: human amylin receptor (hAMYR3) (Homo sapiens, UniProt O60896+P30988)
Construct: host or cells: BHK cells (Hollex-1 line expressing hCTR(a) and CRE-Luc), further transfected with human RAMP3
Sequence (P30988 25-474): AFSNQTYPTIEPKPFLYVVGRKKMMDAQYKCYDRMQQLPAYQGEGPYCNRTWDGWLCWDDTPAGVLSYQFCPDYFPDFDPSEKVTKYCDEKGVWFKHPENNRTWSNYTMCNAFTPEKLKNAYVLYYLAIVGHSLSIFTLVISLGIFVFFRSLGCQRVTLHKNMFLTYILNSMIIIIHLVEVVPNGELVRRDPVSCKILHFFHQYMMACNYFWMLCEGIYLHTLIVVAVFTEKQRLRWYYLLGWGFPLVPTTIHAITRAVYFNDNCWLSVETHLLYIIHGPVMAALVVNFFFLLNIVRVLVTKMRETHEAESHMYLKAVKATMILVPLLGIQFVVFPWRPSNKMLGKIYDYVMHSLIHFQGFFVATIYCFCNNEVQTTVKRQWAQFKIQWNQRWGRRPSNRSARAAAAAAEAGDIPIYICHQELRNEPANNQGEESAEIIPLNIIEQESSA
Sequence (O60896 24-148): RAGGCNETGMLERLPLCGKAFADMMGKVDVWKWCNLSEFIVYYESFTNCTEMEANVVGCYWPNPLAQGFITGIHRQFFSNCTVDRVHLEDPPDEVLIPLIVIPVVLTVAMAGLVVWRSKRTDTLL
ASSAY PROTOCOL: Amylin receptor assay, method A (CRE-luciferase reporter, BHK cells)
Type: cell-based
CONDITION PARAMETERS: hAMYR3 Potency, 1% HSA, EC50, method A, in the presence of 1% HSA
Numbered stars: 1 amine (or outer) side, 2 acyl side, 3 side chain; on linkers, the order of the positions; unused ones are H or OH. Square brackets hold non-standard residues; d marks the D form. Side chains are listed from the residue outwards. * marks the point of attachment. C18 diacid = O=C(O)CCCCCCCCCCCCCCCCC(=O)*; γGlu = O=C(O)[C@H](CCC(=O)[*:2])N[*:1]; AEEA = NCCOCCOCC(=O)O; Aib = CC(C)(N)C(=O)O
READOUT TYPE: EC50 (nM)
Report only the number, with the unit nM understood.

Below, 5 substances whose answers are already recorded.
SUBSTANCE	EC50, nM
H[Aib]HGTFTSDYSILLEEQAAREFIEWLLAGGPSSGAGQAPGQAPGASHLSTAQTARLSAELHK([AEEA-AEEA-γGlu-C18 diacid])LATLPRTETGSGSP-NH2 [Compound 103]	0.0736
Y[Aib]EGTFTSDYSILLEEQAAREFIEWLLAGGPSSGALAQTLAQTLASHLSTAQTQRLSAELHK([AEEA-AEEA-γGlu-C18 diacid])LATLPRTETGSGSP-NH2 [Compound 48]	0.0785
H[Aib]HGTFTSDYSILLEEQAAREFIEWLLAGGPSGGEASHLSTAQTQRLSAELHK([AEEA-AEEA-γGlu-C18 diacid])LATLPRTETGSGSP-NH2 [Compound 75]	0.11
H[Aib]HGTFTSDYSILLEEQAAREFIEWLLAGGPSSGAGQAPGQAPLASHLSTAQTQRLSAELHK([AEEA-AEEA-γGlu-C18 diacid])LATLPRTETGSGSP-NH2 [Compound 93]	0.0664
H[Aib]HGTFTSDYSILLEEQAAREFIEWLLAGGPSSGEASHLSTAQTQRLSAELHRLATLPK([AEEA-AEEA-γGlu-C18 diacid])TETGSGSP-NH2 [Compound 84]	0.175

Q: Supply reported EC50 belonging to this substance: Y[Aib]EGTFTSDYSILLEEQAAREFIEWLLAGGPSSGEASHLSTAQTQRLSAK([AEEA-AEEA-γGlu-C18 diacid])LHRLATLPRTETGSGSP-NH2 [Compound 79]
Result: 0.0534

Q: Supply reported EC50 belonging to this substance: Y[Aib]EGTFTSDYSILLEEQAAREFIEWLLAGGPSRGEASELSTAALGRLSAELHK([AEEA-AEEA-γGlu-C18 diacid])LATLPRTETGSGSP-NH2 [Compound 67]
Result: 0.19

Q: Supply reported EC50 belonging to this substance: Y[Aib]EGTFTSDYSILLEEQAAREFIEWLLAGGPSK([AEEA-AEEA-γGlu-C18 diacid])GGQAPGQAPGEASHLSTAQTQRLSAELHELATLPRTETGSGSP-NH2 [Compound 38]
Result: 0.172

---

The reader will find reported EC50 values listed item by item below.
SYSTEM: human GIP receptor (hGIPR) (Homo sapiens)
Construct: expressed in transfected cells
Sequence (P48546 22-466): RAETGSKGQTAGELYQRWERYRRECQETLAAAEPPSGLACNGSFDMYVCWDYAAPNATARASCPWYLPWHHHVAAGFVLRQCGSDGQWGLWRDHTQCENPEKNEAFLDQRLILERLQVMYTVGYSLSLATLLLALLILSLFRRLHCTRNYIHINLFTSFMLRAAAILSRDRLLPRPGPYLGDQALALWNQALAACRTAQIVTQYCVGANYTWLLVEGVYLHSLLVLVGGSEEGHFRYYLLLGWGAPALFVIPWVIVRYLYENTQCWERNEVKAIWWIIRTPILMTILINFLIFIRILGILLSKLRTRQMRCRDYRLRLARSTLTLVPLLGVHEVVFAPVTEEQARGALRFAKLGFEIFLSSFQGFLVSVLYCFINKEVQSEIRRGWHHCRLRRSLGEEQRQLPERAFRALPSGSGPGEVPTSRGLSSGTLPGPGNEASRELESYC
ASSAY PROTOCOL: GIP receptor assay, method A (CRE-luciferase reporter, BHK cells)
Type: cell-based
CONDITION PARAMETERS: method A, absence of HSA; read-out: hGIPR Potency, no HSA, EC50
Numbered stars: 1 amine (or outer) side, 2 acyl side, 3 side chain; on linkers, the order of the positions; unused ones are H or OH. Square brackets hold non-standard residues; d marks the D form. Side chains are listed from the residue outwards. * marks the point of attachment. C20 diacid = O=C(O)CCCCCCCCCCCCCCCCCCC(=O)*; C18 diacid = O=C(O)CCCCCCCCCCCCCCCCC(=O)*; γGlu = O=C(O)[C@H](CCC(=O)[*:2])N[*:1]; AEEA = NCCOCCOCC(=O)O; Aib = CC(C)(N)C(=O)O
The reply should consist of the numeric value with the unit placed after it.

SUBSTANCE	EC50
H[Aib]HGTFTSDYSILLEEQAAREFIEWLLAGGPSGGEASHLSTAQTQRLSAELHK([AEEA-AEEA-γGlu-C18 diacid])LATLPRTETGSGSP-NH2 [Compound 75]	2.65 pM
H[Aib]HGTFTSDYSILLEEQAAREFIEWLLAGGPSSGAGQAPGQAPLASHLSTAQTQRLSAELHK([AEEA-AEEA-γGlu-C18 diacid])LATLPRTETGSGSP-NH2 [Compound 93]	2.54 pM

Q: Supply reported EC50 belonging to this substance: Y[Aib]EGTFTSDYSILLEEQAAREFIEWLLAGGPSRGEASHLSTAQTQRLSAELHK([AEEA-AEEA-γGlu-C18 diacid])LATLPRTETGSGSP-NH2 [compound 68]
Result: 1.83 pM

Q: Supply reported EC50 belonging to this substance: H[Aib]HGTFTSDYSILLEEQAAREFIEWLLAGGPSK([AEEA-AEEA-γGlu-C20 diacid])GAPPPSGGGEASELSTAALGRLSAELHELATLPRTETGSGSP-NH2 [Compound 16]
Result: 4.27 pM

Q: Supply reported EC50 belonging to this substance: H[Aib]HGTFTSDYSILLEEQAAREFIEWLLAGGPSSGALQAPGQAPLASHLSTAQTARLSAELHK([AEEA-AEEA-γGlu-C18 diacid])LATLPRTETGSGSP-NH2 [Compound 108]
Result: 4.01 pM

Q: Supply reported EC50 belonging to this substance: H[Aib]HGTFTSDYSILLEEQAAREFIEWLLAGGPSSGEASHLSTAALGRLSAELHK([AEEA-AEEA-γGlu-C18 diacid])LATLPRTETGSGSP-NH2 [Compound 88]
Result: 5.68 pM

---

SYSTEM: human GLP-1 receptor (hGLP-1R) (Homo sapiens)
Construct: expressed in transfected cells
Sequence (P43220 24-463): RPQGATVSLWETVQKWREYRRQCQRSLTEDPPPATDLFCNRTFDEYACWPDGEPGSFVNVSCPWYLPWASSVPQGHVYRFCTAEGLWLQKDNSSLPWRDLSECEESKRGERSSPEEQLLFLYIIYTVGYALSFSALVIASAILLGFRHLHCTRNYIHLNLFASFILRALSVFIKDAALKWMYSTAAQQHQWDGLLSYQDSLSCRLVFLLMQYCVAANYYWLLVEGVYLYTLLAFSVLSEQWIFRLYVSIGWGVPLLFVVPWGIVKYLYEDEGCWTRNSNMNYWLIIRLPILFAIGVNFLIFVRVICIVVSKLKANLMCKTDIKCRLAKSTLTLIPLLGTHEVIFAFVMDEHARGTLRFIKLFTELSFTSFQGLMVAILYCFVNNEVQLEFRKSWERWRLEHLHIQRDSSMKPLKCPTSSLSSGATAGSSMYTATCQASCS
ASSAY PROTOCOL: GLP-1 receptor assay, method A (CRE-luciferase reporter, BHK cells)
Type: cell-based
CONDITION PARAMETERS: hGLP-1R Potency, 1% HSA, EC50, method A, in the presence of 1% HSA
Method: To assess how the activation of the receptors is potentially influenced by the presence of human serum albumin (HSA), the in vitro assays were performed in the absence of HSA and presence of 1% (w/v) HSA. Cells at approximately 80-90% confluence were washed once in PBS (Gibco 14190-094) and loosened from the cell flasks with Versene (Gibco, 15040-033). […] Cells were aliquoted and stored at −180° C. until use. […]
Numbered stars: 1 amine (or outer) side, 2 acyl side, 3 side chain; on linkers, the order of the positions; unused ones are H or OH. Square brackets hold non-standard residues; d marks the D form. Side chains are listed from the residue outwards. * marks the point of attachment. C18 diacid = O=C(O)CCCCCCCCCCCCCCCCC(=O)*; C16 diacid = O=C(O)CCCCCCCCCCCCCCC(=O)*; γGlu = O=C(O)[C@H](CCC(=O)[*:2])N[*:1]; AEEA = NCCOCCOCC(=O)O; Aib = CC(C)(N)C(=O)O
The reader will find reported pEC50 values listed item by item below.
Scale explanation: pEC50 corresponds to minus log10 of a concentration expressed in moles per litre.

SUBSTANCE	READOUT TYPE	REPORTED VALUE
H[Aib]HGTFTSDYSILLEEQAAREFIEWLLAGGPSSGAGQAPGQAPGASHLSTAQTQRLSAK([AEEA-AEEA-γGlu-C18 diacid])LHRLATLPRTETGSGSP-NH2 [Compound 78]	pEC50	10.75

Q: Supply reported pEC50 belonging to this substance: H[Aib]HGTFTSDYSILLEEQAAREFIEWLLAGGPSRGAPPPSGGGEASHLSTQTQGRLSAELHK([AEEA-AEEA-γGlu-C18 diacid])LATLPRTETGSGSP-NH2 [Compound 71]
Result: 10.73

Q: Supply reported pEC50 belonging to this substance: Y[Aib]EGTFTSDYSILLEEQAAREFIEWLLAGGPSSGALQAPGQAPLASHLSTAQTARLSAELHK([AEEA-AEEA-γGlu-C18 diacid])LATLPRTETGSGSP-NH2 [Compound 105]
Result: 10.31

Q: Supply reported pEC50 belonging to this substance: Y[Aib]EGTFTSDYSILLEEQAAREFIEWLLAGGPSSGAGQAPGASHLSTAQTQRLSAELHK([AEEA-AEEA-γGlu-C18 diacid])LATLPRTETGSGSP-NH2 [Compound 97]
Result: 9.96

Q: Supply reported pEC50 belonging to this substance: Y[Aib]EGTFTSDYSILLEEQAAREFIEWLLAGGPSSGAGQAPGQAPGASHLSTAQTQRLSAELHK([AEEA-AEEA-γGlu-C18 diacid])LATLPRTETGSGSP-NH2 [compound 52]
Result: 10.57

Q: Supply reported pEC50 belonging to this substance: H[Aib]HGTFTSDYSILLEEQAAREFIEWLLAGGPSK([AEEA-AEEA-γGlu-C16 diacid])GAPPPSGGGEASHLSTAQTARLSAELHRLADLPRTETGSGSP-NH2 [Compound 61]
Result: 10.83

Q: Supply reported pEC50 belonging to this substance: H[Aib]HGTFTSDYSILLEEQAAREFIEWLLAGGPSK([AEEA-AEEA-γGlu-C18 diacid])GALAQTLGTNEASHLSTAQTQRLSAELHELATLPRTETGSGSP-NH2 [Compound 45]
Result: 9.95
